# experimental.target: T1, human GIP receptor (human, UniProt P48546 22-466)
# T1 sequence (looked up): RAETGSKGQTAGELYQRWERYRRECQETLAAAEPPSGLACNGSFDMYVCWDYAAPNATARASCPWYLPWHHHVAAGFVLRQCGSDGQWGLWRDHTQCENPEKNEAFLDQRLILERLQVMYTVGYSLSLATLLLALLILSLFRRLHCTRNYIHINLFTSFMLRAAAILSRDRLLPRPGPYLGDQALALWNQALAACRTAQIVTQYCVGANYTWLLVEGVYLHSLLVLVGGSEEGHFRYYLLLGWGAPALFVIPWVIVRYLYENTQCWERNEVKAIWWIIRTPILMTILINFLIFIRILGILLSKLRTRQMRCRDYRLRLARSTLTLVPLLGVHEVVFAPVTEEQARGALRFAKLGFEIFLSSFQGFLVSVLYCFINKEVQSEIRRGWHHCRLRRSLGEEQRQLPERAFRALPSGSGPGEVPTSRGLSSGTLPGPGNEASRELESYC
# test.description: cell-based or functional assay
*1 amine or outer side, *2 acyl side, *3 side chain or, on linkers, in order; H or OH if unused. Where no end group is shown, it is not given here. Side-chain parts run from the residue outwards. [ ]: non-standard residue; d: D form. The star is where a group is joined. Decanoyl(10-(4-HOOC-PhO)) = O=C(O)c1ccc(OCCCCCCCCCC(=O)*)cc1; αMePhe(2-F) = C[C@](N)(Cc1ccccc1F)C(=O)O; γGlu = O=C(O)[C@H](CCC(=O)[*:2])N[*:1]; αMeY = C[C@](N)(Cc1ccc(O)cc1)C(=O)O; αMeL = CC(C)C[C@](C)(N)C(=O)O; Orn = NCCC[C@H](N)C(=O)O; AEEA = NCCOCCOCC(=O)O; Aib = CC(C)(N)C(=O)O

binder	unit.symbol	cAMP Emax (1.0% HSA)
YXEGTXTSDXXIXLDXKAQXEXIXXLIEGGPSSGAPPPSK (Y-Aib-EGT-αMeF(2F)-TSD-4Pal-Aib-I-αMeL-LD-Orn-K((2-[2-(2-Amino-ethoxy)-ethoxy]-acetyl)3-(Y-Glu)-CO-(CH2)10-CH3)AQ-Aib-E-αMeF-I-(D-Glu)-αMeY-LIEGGPSSGAPPPSK((2-[2-(2-Amino-ethoxy)-ethoxy]-acetyl)3-(γ-Glu)-CO-(CH2)10-CH3)-NH2) [Example 439]	%	91.7
YXEGTXTSDYXIXLDXKAQXEFIXXLIKGGPSSGAPPPS (Y-Aib-EGT-αMeF(2F)-TSDY-Aib-I-αMeL-LD-Orn-K((2-[2-(2-Amino-ethoxy)-ethoxy]-acetyl)2-(10-(4-carboxyphenoxy)decanoyl))AQ-Aib-EFI-(D-Glu)-αMeY-LIK((2-[2-(2-Amino-ethoxy)-ethoxy]-acetyl)2-(10-(4-carboxyphenoxy)decanoyl))GGPSSGAPPPS-NH2) [Example 396]	%	67.1
Y[Aib]EGT[αMePhe(2-F)]TSDV[Aib]I[αMeL]LD[Orn]IAQ[Aib]K([AEEA-AEEA-γGlu-Decanoyl(10-(4-HOOC-PhO))])FI[dE][αMeY]LIEGGPSSGAPPPSK([AEEA-AEEA-γGlu-Decanoyl(10-(4-HOOC-PhO))])-NH2 [Example 383]	%	82.8
YXEGTXTSDKXIXLDXKAQXEXIXXLIEGGPSSGAPPPS (Y-Aib-EGT-αMeF(2F)-TSDK((2-[2-(2-Amino-ethoxy)-ethoxy]-acetyl)3-(γ-Glu)-CO-(CH2)10-CH3)-Aib-I-αMeL-LD-Orn-K((2-[2-(2-Amino-ethoxy)-ethoxy]-acetyl)3-(γ-Glu)-CO-(CH2)10-CH3)AQ-Aib-E-αMeF-I-(D-Glu)-αMeY-LIEGGPSSGAPPPS-NH2) [Example 436]	%	96
Y[Aib]EGT[αMePhe(2-F)]TSDV[Aib]I[αMeL]LD[Orn]K([AEEA-AEEA-γGlu-Decanoyl(10-(4-HOOC-PhO))])AQ[Aib]EFI[dE][αMeY]LIEGGPSSGAPPPSK([AEEA-AEEA-γGlu-Decanoyl(10-(4-HOOC-PhO))])-NH2 [Example 380]	%	93.5
YXEGTXTSDXXIXLDXKAQXXFIXXLIKGGPSSGAPPPS (Y-Aib-EGT-αMeF(2F)-TSD-4Pal-Aib-I-αMeL-LD-Orn-K((2-[2-(2-Amino-ethoxy)-ethoxy]-acetyl)2-(γ-Glu)-CO-(CH2)10-CH3)AQ-Aib-4Pal-FI-(D-Glu)-αMeY-LIK((2-[2-(2-Amino-ethoxy)-ethoxy]-acetyl)2-(γ-Glu)-CO-(CH2)10-CH3)GGPSSGAPPPS-NH2) [Example 416]	%	83
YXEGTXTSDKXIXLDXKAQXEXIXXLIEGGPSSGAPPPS (Y-Aib-EGT-αMeF(2F)-TSDK((2-[2-(2-Amino-ethoxy)-ethoxy]-acetyl)2-(γ-Glu)-CO-(CH2)10-CH3)-Aib-I-αMeL-LD-Orn-K((2-[2-(2-Amino-ethoxy)-ethoxy]-acetyl)2-(γ-Glu)-CO-(CH2)10-CH3)AQ-Aib-E-αMeF-I-(D-Glu)-αMeY-LIEGGPSSGAPPPS-NH2) [Example 429]	%	93.3
YXEGTXTSDYXIXLDXKAQXKFIXXLIXGGPSSGAPPPS (Y-Aib-EGT-αMeF(2F)-TSDY-Aib-I-αMeL-LD-Orn-K((2-[2-(2-Amino-ethoxy)-ethoxy]-acetyl)2-(γ-Glu)-(10-(4-carboxyphenoxy)decanoyl))AQ-Aib-K((2-[2-(2-Amino-ethoxy)-ethoxy]-acetyl)2-(γ-Glu)-(10-(4-carboxyphenoxy)decanoyl))FI-(D-Glu)-αMeY-LI-Orn-GGPSSGAPPPS-NH2) [Example 409]	%	84
Y[Aib]EGT[αMePhe(2-F)]TSDV[Aib]I[αMeL]LD[Orn]K([AEEA-AEEA-γGlu-Decanoyl(10-(4-HOOC-PhO))])AQ[Aib]K([AEEA-AEEA-γGlu-Decanoyl(10-(4-HOOC-PhO))])FI[dE][αMeY]LI[Orn]GGPSSGAPPPS-NH2 [Example 410]	%	86.4
YXEGTXTSDXXIXLDXKAQXEFIXXLIEGGPSSGAPPPSK (Y-Aib-EGT-αMeF(2F)-TSD-4Pal-Aib-I-αMeL-LD-Orn-K((2-[2-(2-Amino-ethoxy)-ethoxy]-acetyl)2-(γ-Glu)-CO-(CH2)12-CO2H)AQ-Aib-EFI-(D-Glu)-αMeY-LIEGGPSSGAPPPSK((2-[2-(2-Amino-ethoxy)-ethoxy]-acetyl)2-(γ-Glu)-CO-(CH2)12-CO2H)-NH2) [Example 359]	%	81

These measurements were taken from patent US20230265151A1.
